# Test system: DOHH-2
# assay.info: Antiproliferative activity against human DOHH-2 cells assessed as cell growth inhibition measured after 72 hrs by MTT assay
# Format: functional, cell-based
# experimental.setup: DOHH-2, 72 h
reported.endpoint: log10 of IC50 (log10 of the value in µM)
Note the log scale: values are log10 of IC50 expressed in µM.

Example entries begin here.
> print(dat)
                                   molecule  target  reported.endpoint  numeric.result
1  C[C@H](Nc1ncnc2nc[nH]c12)c1cc2cccc(Cl)c2c(=O)n1-c1ccccc1 [DUVELISIB]  DOHH-2      log10 of IC50           -0.70
2  C[C@H]1CC[C@@H](c2nc3cccc(Cl)c3c(=O)n2-c2cc(F)cc(F)c2)N1c1nc(N)nc2[nH]cnc12  DOHH-2      log10 of IC50            0.34

// each molecule listed below needs its log10 of IC50
1. C[C@H]1CC[C@@H](c2nc3cccc(C#Cc4ccccc4)c3c(=O)n2-c2ccccc2)N1c1nc(N)nc(N)c1C#N
2. C[C@H]1CC[C@@H](c2nc3c(F)cc(F)cc3c(=O)n2-c2cccnc2)N1c1nc(N)nc(N)c1C#N
3. N#Cc1c(N)nc(N)nc1N1[C@H](c2nc3cccc(F)c3c(=O)n2-c2cccnc2)C[C@@H]2CCCC[C@@H]21
4. C[C@H]1CC[C@@H](c2nc3cccc(Cl)c3c(=O)n2N2CCOCC2)N1c1nc(N)nc2[nH]cnc12
5. C[C@H]1CC[C@@H](c2nc3cccc(-c4cnn(C5CC5)c4)c3c(=O)n2-c2cccc(F)c2)N1c1nc(N)nc(N)c1C#N
6. C[C@H]1CC[C@@H](c2nc3cccc(Cl)c3c(=O)n2-c2cccc(F)c2)N1c1nc(N)nc2[nH]cnc12
7. C[C@H]1CC[C@@H](c2nc3cccc(F)c3c(=O)n2-c2cccnc2)N1c1nc(N)nc(N)c1C#N

0.26
-0.33
0.41
0.16
-0.01
0.42
-0.25

// each molecule listed below needs its log10 of IC50
1. C[C@H]1CC[C@@H](c2nc3cccc(Cl)c3c(=O)n2-c2ccccc2)N1c1nc(F)nc2[nH]cnc12
2. C[C@H]1CC[C@@H](c2nc3cccc(Cl)c3c(=O)n2-c2cccc(F)c2)N1c1nc(N)nc(N)c1C#N
3. N#Cc1c(N)nc(N)nc1N1[C@H](c2nc3cccc(Cl)c3c(=O)n2N2CCOCC2)C[C@@H]2CCCC[C@@H]21
4. COc1ccc(-c2cccc3nc([C@@H]4CC[C@H](C)N4c4nc(N)nc(N)c4C#N)n(-c4ccccc4)c(=O)c23)cn1

1: -0.04; 2: -0.30; 3: 0.59; 4: -0.20
